assayRemarks: excess molar enthalpy (molar enthalpy of mixing); xn = mol fraction of the nth substance listed
conditionParameters: 298.15 K; 101 kPa; Liquid; Calvet calorimetry; x1 = 0.8
readoutName: excess molar enthalpy (kcal/mol)

compound	excess molar enthalpy (kcal/mol)
FC(F)(F)C(F)(F)C(F)(F)C(F)(F)C(F)(F)C(F)(F)C(F)(F)C(F)(F)F [octadecafluorooctane] + CCCCCC	0.279
FC(F)(F)C(F)(F)C(F)(F)C(F)(F)C(F)(F)C(F)(F)F [perfluorohexane] + CCCCCC	0.35
FC(F)(F)C(F)(F)C(F)(F)C(F)(F)C(F)(F)C(F)(F)F [perfluorohexane] + C1CCCCC1	0.382
FC(F)(F)C(F)(F)C(F)(F)C(F)(F)C(F)(F)C(F)(F)C(F)(F)F [hexadecafluoroheptane] + CCCCCC	0.348
FC(F)(F)C(F)(F)C(F)(F)C(F)(F)C(F)(F)C(F)(F)F [perfluorohexane] + CCCCCCC	0.371
FC(F)(F)C(F)(F)C(F)(F)C(F)(F)C(F)(F)C(F)(F)F [perfluorohexane] + CCCCCCCC	0.363

###

assayRemarks: excess molar enthalpy (molar enthalpy of mixing); xn = mol fraction of the nth substance listed
conditionParameters: 298.15 K; 101 kPa; Liquid; Calvet calorimetry; x1 = 0.7
readoutName: excess molar enthalpy (kcal/mol)

compound	readoutName	unitText	recordedResult
FC(F)(F)C(F)(F)C(F)(F)C(F)(F)C(F)(F)C(F)(F)F [perfluorohexane] + CCCCCCC	excess molar enthalpy	kcal/mol	0.459
FC(F)(F)C(F)(F)C(F)(F)C(F)(F)C(F)(F)C(F)(F)C(F)(F)C(F)(F)F [octadecafluorooctane] + CCCCCC	excess molar enthalpy	kcal/mol	0.366
FC(F)(F)C(F)(F)C(F)(F)C(F)(F)C(F)(F)C(F)(F)F [perfluorohexane] + CCCCCC	excess molar enthalpy	kcal/mol	0.441
FC(F)(F)C(F)(F)C(F)(F)C(F)(F)C(F)(F)C(F)(F)F [perfluorohexane] + CCCCCCCC	excess molar enthalpy	kcal/mol	0.426
FC(F)(F)C(F)(F)C(F)(F)C(F)(F)C(F)(F)C(F)(F)F [perfluorohexane] + C1CCCCC1	excess molar enthalpy	kcal/mol	0.476
FC(F)(F)C(F)(F)C(F)(F)C(F)(F)C(F)(F)C(F)(F)C(F)(F)F [hexadecafluoroheptane] + CCCCCC	excess molar enthalpy	kcal/mol	0.439

###

assayRemarks: excess molar enthalpy (molar enthalpy of mixing); xn = mol fraction of the nth substance listed
conditionParameters: 298.15 K; 101 kPa; Liquid; Calvet calorimetry; x1 = 0.5
readoutName: excess molar enthalpy (kJ/mol)

compound	readoutName	unitText	recordedResult
FC(F)(F)C(F)(F)C(F)(F)C(F)(F)C(F)(F)C(F)(F)F [perfluorohexane] + C1CCCCC1	excess molar enthalpy	kJ/mol	2.22
FC(F)(F)C(F)(F)C(F)(F)C(F)(F)C(F)(F)C(F)(F)F [perfluorohexane] + CCCCCC	excess molar enthalpy	kJ/mol	2.1
FC(F)(F)C(F)(F)C(F)(F)C(F)(F)C(F)(F)C(F)(F)C(F)(F)F [hexadecafluoroheptane] + CCCCCC	excess molar enthalpy	kJ/mol	2.08
FC(F)(F)C(F)(F)C(F)(F)C(F)(F)C(F)(F)C(F)(F)C(F)(F)C(F)(F)F [octadecafluorooctane] + CCCCCC	excess molar enthalpy	kJ/mol	1.84
FC(F)(F)C(F)(F)C(F)(F)C(F)(F)C(F)(F)C(F)(F)F [perfluorohexane] + CCCCCCC	excess molar enthalpy	kJ/mol	2.16
FC(F)(F)C(F)(F)C(F)(F)C(F)(F)C(F)(F)C(F)(F)F [perfluorohexane] + CCCCCCCC	excess molar enthalpy	kJ/mol	1.92

# credit: the NIST ThermoML archive (doi:10.1016/j.jct.2007.04.002)
